- experimental.system: T1, Human plasmin (human, UniProt P00747 97-810)
- T1 construct: mature
- T1 sequence (P00747 97-810): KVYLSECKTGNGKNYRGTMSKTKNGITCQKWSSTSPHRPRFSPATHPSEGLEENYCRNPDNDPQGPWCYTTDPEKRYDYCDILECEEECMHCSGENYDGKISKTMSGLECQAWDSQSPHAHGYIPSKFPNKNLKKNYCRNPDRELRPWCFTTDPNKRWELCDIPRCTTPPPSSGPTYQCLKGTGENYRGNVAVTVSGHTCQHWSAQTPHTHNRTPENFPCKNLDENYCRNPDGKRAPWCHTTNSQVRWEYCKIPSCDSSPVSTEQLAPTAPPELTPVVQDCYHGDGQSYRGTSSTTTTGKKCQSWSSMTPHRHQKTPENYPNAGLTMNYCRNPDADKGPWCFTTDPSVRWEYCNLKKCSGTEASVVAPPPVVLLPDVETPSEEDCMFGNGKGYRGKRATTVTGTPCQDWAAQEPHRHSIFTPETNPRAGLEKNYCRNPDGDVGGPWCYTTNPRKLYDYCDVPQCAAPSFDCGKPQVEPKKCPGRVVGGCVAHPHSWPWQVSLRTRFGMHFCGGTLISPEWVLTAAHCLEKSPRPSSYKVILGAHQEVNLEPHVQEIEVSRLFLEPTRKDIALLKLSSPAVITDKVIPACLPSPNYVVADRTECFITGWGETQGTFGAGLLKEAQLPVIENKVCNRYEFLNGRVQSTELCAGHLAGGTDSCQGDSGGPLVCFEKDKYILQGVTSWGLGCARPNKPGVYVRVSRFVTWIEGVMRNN
- experimental.details: progress curves of S-2251 hydrolysis, 2 nM plasmin, n = 6, global fit to Eq. 1-3
measure: Ki (nM)
Only the number, expressed in nM, is required.

Textilinin 1 (other, also called Txln 1) KDRPDFCELPADTGPCRVRFPSFYYNPDEKKCLEFIYGGCEGNANNFITKEECESTCAA ... 3.5

Kindly consider the entry below.
Just so you know, measured Ki for Textilinin 2 (other, also called Txln 2) KDRPELCELPPDTGPCRVRFPSFYYNPDEQKCLEFIYGGCEGNANNFITKEECESTCAA came out at 2.2
